Source of measurements: PubChem BioAssay

Assay System: Receptor tyrosine-protein kinase erbB-2 (Homo sapiens)
Measurement Notes: reducers of endogenous Her2 protein level, primary screen, SKBR3 breast tumor cells, AlphaScreen, ATP viability (AID 461);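 further: lower value means less Her2 protein in the cells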
Experimental Parameters: 18-24 h, at 10 µM, stronger effect = lower value
Value Type: Her2 level (%)
Report as a plain number; the unit % is understood.

Problem: Write down the reported Her2 level (system: Receptor tyrosine-protein kinase erbB-2 (Homo sapiens)) of Cn1c(SCc2nnc3n2CCCCC3)nc2ccccc21
Result: 98.5

Problem: Write down the reported Her2 level (system: Receptor tyrosine-protein kinase erbB-2 (Homo sapiens)) of Cc1ccc(-c2nn3c(=O)c(C)nnc3s2)cc1
Result: 112

Problem: Write down the reported Her2 level (system: Receptor tyrosine-protein kinase erbB-2 (Homo sapiens)) of CC(C)CNC(=O)C1C2C=CC(C2)C1C(=O)O (configuration not stated)
Result: 96

Problem: Write down the reported Her2 level (system: Receptor tyrosine-protein kinase erbB-2 (Homo sapiens)) of COC(=O)[C@H](C)NC(=O)Nc1cc(OC)ccc1OC
Result: 81.5

Problem: Write down the reported Her2 level (system: Receptor tyrosine-protein kinase erbB-2 (Homo sapiens)) of CCOC(=O)C1CCN(C(=O)c2ccc(OC)cc2OC)CC1
Result: 112

Problem: Write down the reported Her2 level (system: Receptor tyrosine-protein kinase erbB-2 (Homo sapiens)) of O=c1[nH]c2ccccc2nc1NCCN1CCOCC1
Result: 87.5

Problem: Write down the reported Her2 level (system: Receptor tyrosine-protein kinase erbB-2 (Homo sapiens)) of COC(=O)Nc1ccc(S(=O)(=O)N(C)CC(F)(F)C(F)F)cc1
Result: 102

Problem: Write down the reported Her2 level (system: Receptor tyrosine-protein kinase erbB-2 (Homo sapiens)) of Cc1nc(CCNC(=O)c2ccccc2)cs1
Result: 95

Problem: Write down the reported Her2 level (system: Receptor tyrosine-protein kinase erbB-2 (Homo sapiens)) of CCOc1ccc(NCc2nnc(SCC(=O)Nc3cc(C)on3)n2-c2ccccc2OC)cc1
Result: 79

Problem: Write down the reported Her2 level (system: Receptor tyrosine-protein kinase erbB-2 (Homo sapiens)) of COC(=O)c1ccccc1NS(=O)(=O)c1ccc(F)cc1
Result: 83.5

Problem: Write down the reported Her2 level (system: Receptor tyrosine-protein kinase erbB-2 (Homo sapiens)) of O=C1CCc2cc(S(=O)(=O)N3CCC(C(=O)NCc4ccccn4)CC3)ccc2N1
Result: 89

Problem: Write down the reported Her2 level (system: Receptor tyrosine-protein kinase erbB-2 (Homo sapiens)) of CCCn1c2c(c(O)c(C(=O)Nc3ccc(C)cn3)c1=O)CCCC2
Result: 82.5

---

Kindly supply the reported Her2 level values for the records listed here.
Assay System: Receptor tyrosine-protein kinase erbB-2 (Homo sapiens)
Measurement Notes: reducers of endogenous Her2 protein level, primary screen, SKBR3 breast tumor cells, AlphaScreen, ATP viability (AID 461);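 further: lower value means less Her2 protein in the cells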
Experimental Parameters: 18-24 h, at 10 µM, stronger effect = lower value
Active and inactive are the calls of the source.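 How the source made its calls: active means Her2 level under about 52% in both replicate screens, with viability over 70% of control (limit read from the data); inconclusive means Her2 under the limit in one screen only, or viability under 70%; inactive means Her2 level above the set limit.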

Problem: Look up and report measured Her2 level for this entry: O=C(NCC1COc2ccccc2O1)C1CCCN(S(=O)(=O)c2cnc[nH]2)C1 (stereo unspecified)
Result: 101% (inactive)

Problem: Look up and report measured Her2 level for this entry: O=C1CC(C2CCCO2)C(=O)N1Cc1ccccc1 (stereo unspecified)
Result: 94% (inactive)

Problem: Look up and report measured Her2 level for this entry: CCCc1c(O)nc(SCC(=O)NCCc2ccc(OC)c(OC)c2)[nH]c1=O
Result: 93.5% (inactive)

Problem: Look up and report measured Her2 level for this entry: CCC(C)NC(=O)CC1Oc2ccc(C)cc2NC1=O (stereo unspecified)
Result: 99% (inactive)

Problem: Look up and report measured Her2 level for this entry: CCOC(=O)c1cnc(SCC)[nH]c1=O
Result: 101% (inactive)

Problem: Look up and report measured Her2 level for this entry: Fc1ccc(-c2csc3nnc(SCc4cccnc4)n23)cc1
Result: 112% (inactive)

---

Measurement Notes: reversal of MRP1-mediated doxorubicin resistance, pilot screen, H69AR cells, doxorubicin co-treatment (AID 601)
Experimental Parameters: H69AR cells + 2 uM doxorubicin, CellTiter-Glo, 72 h; at 10 µM; stronger effect = higher value
Activity calls are given as the source filed them.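 How the source made its calls: active means viability loss from added drug above about 55%, and viability with drug at most 40%, in both replicates (limit read from the data, passing the limit was not always enough); inconclusive means both conditions met in only one replicate; inactive means neither replicate meets both conditions.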 Square brackets hold non-standard residues; d marks the D form. Peptide text beside a SMILES is read from it. * marks the point of attachment. ξ: configuration not given here. Cbz = O=C(OCc1ccccc1)*; ξK = NCCCCC(N)C(=O)O
Kindly supply the reported differential viability (reversal) values for the records listed here.

Problem: Look up and report measured differential viability (reversal) for this entry: Cc1cccc(N2CCN(C(=O)CCn3c(=S)[nH]c4cc5c(cc4c3=O)OCO5)CC2C)c1 (stereo not given)
Result: -5.97% (inactive)

Problem: Look up and report measured differential viability (reversal) for this entry: O=C(OCc1nnc(-c2ccccc2)o1)C1=COCCO1
Result: -0.965% (inactive)

Problem: Look up and report measured differential viability (reversal) for this entry: CCOC(=O)Nc1c(C(=O)OC)[nH]c2cccc(OC)c12
Result: 13% (inactive)

Problem: Look up and report measured differential viability (reversal) for this entry: COC(=O)C1=C(C)NC(=O)C1(Nc1ccc(Cl)cn1)C(F)(F)F (stereo not given)
Result: -1.2% (inactive)

Problem: Look up and report measured differential viability (reversal) for this entry: COC(=O)C(CCCCNC(=O)OCc1ccccc1)NC(=O)CN (stereo not given) (H-Gly-[ξK](Cbz)-OMe)
Result: 4.78% (inactive)

---

Measurement Notes: HUVEC growth inhibition – cell-based, human, primary screen (AID 575);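 further: 100% = median of untreated cell wells with 0.1% DMSO on each plate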
Experimental Parameters: HUVEC proliferation, CellTiter-Glo luminescence, 72 h; at 10 µM; stronger effect = lower value
Value Type: viability (%)
Report as a plain number; the unit % is understood.

Problem: Look up and report measured viability for this entry: Cc1ccc(NC(=O)c2ccc(NS(=O)(=O)c3c(C)noc3C)cc2)cc1C
Result: 84.1

Problem: Look up and report measured viability for this entry: O=S(c1ccsc1)c1ccsc1
Result: 104

Problem: Look up and report measured viability for this entry: CCC(=O)N[C@@H]1CC(C(C)(C)NC(=O)CC)CC=C1C (some centres not stated)
Result: 93.4

Problem: Look up and report measured viability for this entry: CSc1ccc(Cn2nnc(C(=O)NCc3ccccc3)c2N)cc1
Result: 76.4

Problem: Look up and report measured viability for this entry: CCOC(=O)c1ccc(NC(=O)NC(C)C2CCCO2)cc1 (configuration not stated)
Result: 108

Problem: Look up and report measured viability for this entry: O=C1NC(c2cccs2)Nc2ccccc21 (configuration not stated)
Result: 111

Problem: Look up and report measured viability for this entry: c1cn(C23CC4CC(CC(C4)C2)C3)cn1
Result: 104

Problem: Look up and report measured viability for this entry: Cc1noc(C)c1CSc1nc2cc(S(=O)(=O)N3CCOCC3)ccc2o1
Result: 96.7

Problem: Look up and report measured viability for this entry: CCCCc1ccc(NC(=O)c2c(C)noc2C)cc1
Result: 96

Problem: Look up and report measured viability for this entry: CCS(=O)(=O)N1CCCC(C(=O)NCc2cccc(OC)c2)C1 (configuration not stated)
Result: 98.1

Problem: Look up and report measured viability for this entry: O=C1C(c2ccncc2)=C(O)c2ccccc21
Result: 73.6

Problem: Look up and report measured viability for this entry: O=C(c1ccc2ccccc2n1)N1CCN(c2ccccc2)CC1
Result: 100

---

Kindly supply the reported viability values for the records listed here.
Measurement Notes: reversal of MRP1-mediated doxorubicin resistance, pilot screen, H69AR cells, doxorubicin co-treatment (AID 601)
Experimental Parameters: H69AR cells + 2 uM doxorubicin, CellTiter-Glo, 72 h; measured here: viability with 2 uM doxorubicin; at 10 µM; stronger effect = lower value
Report as a plain number; the unit % is understood.

Problem: Look up and report measured viability for this entry: Cc1cc(C)nc(SCc2nnc(SCc3ccccc3Cl)o2)n1
Result: 81.5

Problem: Look up and report measured viability for this entry: Cc1ccc(NC(=O)C2CCCN2C(=O)Oc2ccccc2)cc1 (stereo unspecified)
Result: 91.9

Problem: Look up and report measured viability for this entry: N#Cc1nc(-c2cccs2)oc1NCCc1ccccc1
Result: 83.4

Problem: Look up and report measured viability for this entry: CC1=CC=CC2=NC(=O)CC(C)(C(=O)N(CC(=O)NC(C)C)C3CCCC3)N12 (stereo unspecified)
Result: 100

Problem: Look up and report measured viability for this entry: COc1ccc(-c2nc(C#N)c(N3CCOCC3)o2)cc1OC
Result: 85

Problem: Look up and report measured viability for this entry: CSc1nc2c(ccc3ccccc32)o1
Result: 87.9

Problem: Look up and report measured viability for this entry: COc1cc(-c2nc(-c3cccc(C(F)(F)F)c3)no2)cc(OC)c1OC
Result: 82.6

Problem: Look up and report measured viability for this entry: COc1ccc2nc(NC(=O)C3CCCN(S(=O)(=O)c4cccc5nsnc45)C3)sc2c1 (stereo unspecified)
Result: 93.2

Problem: Look up and report measured viability for this entry: COc1ccccc1-c1cc(C(=O)NCCCn2ccnc2)no1
Result: 83.1

Problem: Look up and report measured viability for this entry: CCOc1ccc(OCc2cccc(C(=O)O)c2)cc1
Result: 79.1

Problem: Look up and report measured viability for this entry: CCOC(=O)c1[nH]cc(-c2ccccc2)c1N1CCOCC1
Result: 85.5
